Each entry below carries its measured Ki, system: Sodium-dependent serotonin transporter (Homo sapiens).
Sequence (P31645 whole entry): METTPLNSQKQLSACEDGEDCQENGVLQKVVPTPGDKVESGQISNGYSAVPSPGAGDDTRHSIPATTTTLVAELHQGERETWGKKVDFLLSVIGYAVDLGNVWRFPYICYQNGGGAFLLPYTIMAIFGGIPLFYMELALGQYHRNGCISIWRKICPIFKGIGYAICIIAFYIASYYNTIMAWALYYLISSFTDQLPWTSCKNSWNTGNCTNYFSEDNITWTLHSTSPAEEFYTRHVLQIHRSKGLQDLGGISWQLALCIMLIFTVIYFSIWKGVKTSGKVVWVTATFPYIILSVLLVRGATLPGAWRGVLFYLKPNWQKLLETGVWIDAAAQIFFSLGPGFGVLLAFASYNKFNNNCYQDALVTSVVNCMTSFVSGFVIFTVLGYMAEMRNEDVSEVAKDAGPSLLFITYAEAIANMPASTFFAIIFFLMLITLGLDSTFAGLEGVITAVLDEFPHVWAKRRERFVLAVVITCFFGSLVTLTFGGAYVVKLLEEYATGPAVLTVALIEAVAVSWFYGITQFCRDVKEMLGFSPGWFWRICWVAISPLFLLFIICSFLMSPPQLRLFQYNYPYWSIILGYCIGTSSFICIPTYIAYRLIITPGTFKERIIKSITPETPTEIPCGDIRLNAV
One number for each entry, in nM.

Known results for compounds:
{"COMPOUND": "NCC[C@@H](Oc1cccc2ccccc12)c1cccs1", "Ki, nM": 8.3}
{"COMPOUND": "COc1ccc(C2=NN(CCCCCNCC[C@H](Oc3cccc4ccccc34)c3cccs3)C(=O)[C@@H]3CC=CC[C@H]23)cc1OC", "Ki, nM": 726}

# input for lookup
Problem: Field request: Ki | item: NCC[C@H](Oc1cccc2ccccc12)c1cccs1 [(S)-NORDULOXETINE]
Result: 18

====

Each entry below carries its measured pIC50, system: Sodium-dependent serotonin transporter (Homo sapiens).
One number for each entry, as −log10 of the molar value.

Known results for compounds:
{"COMPOUND": "COc1ccc(C2=NN(CCCCCNCC[C@H](Oc3cccc4ccccc34)c3cccs3)C(=O)[C@@H]3CC=CC[C@H]23)cc1OC", "pIC50": 6.39}
{"COMPOUND": "NCC[C@H](Oc1cccc2ccccc12)c1cccs1 [(S)-NORDULOXETINE]", "pIC50": 7.59}

# input for lookup
Problem: Field request: pIC50 | item: COc1ccc(C2=NN(CCCCCNCC[C@@H](Oc3cccc4ccccc34)c3cccs3)C(=O)[C@@H]3CC=CC[C@H]23)cc1OC
Result: 6.35

====

TARGET_OR_TEST_SYSTEM: Sodium-dependent dopamine transporter (Homo sapiens)
Sequence (Q01959 whole entry): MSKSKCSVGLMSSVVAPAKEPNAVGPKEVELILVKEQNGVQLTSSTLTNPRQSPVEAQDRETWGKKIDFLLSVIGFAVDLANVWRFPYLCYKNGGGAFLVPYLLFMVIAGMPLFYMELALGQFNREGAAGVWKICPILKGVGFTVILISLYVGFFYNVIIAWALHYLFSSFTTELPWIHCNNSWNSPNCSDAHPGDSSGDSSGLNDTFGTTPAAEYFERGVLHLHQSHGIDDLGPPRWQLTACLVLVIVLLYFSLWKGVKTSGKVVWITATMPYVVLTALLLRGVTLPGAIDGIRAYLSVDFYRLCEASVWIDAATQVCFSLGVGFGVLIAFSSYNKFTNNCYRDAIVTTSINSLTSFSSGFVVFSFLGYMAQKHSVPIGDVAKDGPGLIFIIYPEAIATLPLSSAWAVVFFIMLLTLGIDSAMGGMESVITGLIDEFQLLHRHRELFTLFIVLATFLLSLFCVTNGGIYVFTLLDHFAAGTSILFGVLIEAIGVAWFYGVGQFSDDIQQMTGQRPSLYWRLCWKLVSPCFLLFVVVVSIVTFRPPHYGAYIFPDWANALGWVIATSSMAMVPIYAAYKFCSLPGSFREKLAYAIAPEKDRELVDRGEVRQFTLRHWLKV
READOUT_KIND: pKi
Answers are plain numbers, as −log10 of the molar value.

Problem: Field request: pKi | item: COc1ccc(C2=NN(CCCCCNCC[C@@H](Oc3cccc4ccccc34)c3cccs3)C(=O)[C@@H]3CC=CC[C@H]23)cc1OC
Result: 6.07

====

TARGET_OR_TEST_SYSTEM: Sodium-dependent noradrenaline transporter (Homo sapiens, UniProt P23975)
Sequence (P23975 whole entry): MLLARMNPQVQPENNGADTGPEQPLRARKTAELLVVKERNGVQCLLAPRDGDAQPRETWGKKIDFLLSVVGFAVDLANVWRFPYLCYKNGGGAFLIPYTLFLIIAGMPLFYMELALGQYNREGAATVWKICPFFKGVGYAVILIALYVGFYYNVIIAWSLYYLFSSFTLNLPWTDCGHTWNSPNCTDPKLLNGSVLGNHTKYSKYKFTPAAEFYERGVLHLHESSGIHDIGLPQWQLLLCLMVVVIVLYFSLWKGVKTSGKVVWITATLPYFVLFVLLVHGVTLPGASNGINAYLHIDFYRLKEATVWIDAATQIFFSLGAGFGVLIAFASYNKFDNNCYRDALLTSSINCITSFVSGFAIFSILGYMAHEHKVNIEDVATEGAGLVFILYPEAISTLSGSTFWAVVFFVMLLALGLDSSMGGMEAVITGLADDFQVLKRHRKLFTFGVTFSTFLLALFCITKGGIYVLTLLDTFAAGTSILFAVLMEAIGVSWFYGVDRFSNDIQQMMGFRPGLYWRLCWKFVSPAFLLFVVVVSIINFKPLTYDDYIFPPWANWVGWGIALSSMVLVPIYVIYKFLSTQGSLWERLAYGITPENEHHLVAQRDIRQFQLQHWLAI
READOUT_KIND: pIC50
One number for each entry, as −log10 of the molar value.

Problem: Field request: pIC50 | item: NCC[C@H](Oc1cccc2ccccc12)c1cccs1 [(S)-NORDULOXETINE]
Result: 6.35
